Below: a set of entries, each annotated with reported relative viability.
# System: PC-14
# METHOD SUMMARY: relative viability (nuclei count vs DMSO), 5 days (fraction); higher = more cells survive
# CONDITION DESCRIPTION: first compound 1.265 µM
Write the value as a bare number.

Some molecules with known relative viability results, for comparison:
{"MOLECULE": "Clc1ccc(Nc2nnc(Cc3ccncc3)c3ccccc23)cc1 [Vatalanib] + Nc1ncn([C@H]2C[C@H](O)[C@@H](CO)O2)c(=O)n1 [Decitabine] (partner 2 µM)", "relative viability": 0.174}
{"MOLECULE": "Clc1ccc(Nc2nnc(Cc3ccncc3)c3ccccc23)cc1 [Vatalanib] + Cc1nc(Nc2ncc(C(=O)Nc3c(C)cccc3Cl)s2)cc(N2CCN(CCO)CC2)n1 [Dasatinib] (partner 0.075 µM)", "relative viability": 0.244}
{"MOLECULE": "Clc1ccc(Nc2nnc(Cc3ccncc3)c3ccccc23)cc1 [Vatalanib] + O=C(c1cc(Cc2n[nH]c(=O)c3ccccc23)ccc1F)N1CCN(C(=O)C2CC2)CC1 [Olaparib] (partner 8 µM)", "relative viability": 0.276}
{"MOLECULE": "COc1cc(N2CCC(C(N)=O)CC2)ccc1Nc1nc(N)c(Cl)c(Nc2ccccc2S(=O)(=O)C(C)C)n1 [HG-5-88-01] + O=C(c1cc(Cc2n[nH]c(=O)c3ccccc23)ccc1F)N1CCN(C(=O)C2CC2)CC1 [Olaparib] (partner 8 µM)", "relative viability": 0.307}
{"MOLECULE": "Clc1ccc(Nc2nnc(Cc3ccncc3)c3ccccc23)cc1 [Vatalanib] + CS(=O)(=O)CCNCc1ccc(-c2ccc3ncnc(Nc4ccc(OCc5cccc(F)c5)c(Cl)c4)c3c2)o1 [Lapatinib] (partner 2 µM)", "relative viability": 0.315}
{"MOLECULE": "Clc1ccc(Nc2nnc(Cc3ccncc3)c3ccccc23)cc1 [Vatalanib] + Cc1nc(NC(=O)N2CCC[C@H]2C(N)=O)sc1-c1ccnc(C(C)(C)C(F)(F)F)c1 [Alpelisib] (partner 2 µM)", "relative viability": 0.904}
{"MOLECULE": "COc1cc(N2CCC(C(N)=O)CC2)ccc1Nc1nc(N)c(Cl)c(Nc2ccccc2S(=O)(=O)C(C)C)n1 [HG-5-88-01] + COc1cc2c(Oc3ccc(NC(=O)C4(C(=O)Nc5ccc(F)cc5)CC4)cc3F)ccnc2cc1OCCCN1CCOCC1 [Foretinib] (partner 0.25 µM)", "relative viability": 0.804}
{"MOLECULE": "COc1cc(N2CCC(C(N)=O)CC2)ccc1Nc1nc(N)c(Cl)c(Nc2ccccc2S(=O)(=O)C(C)C)n1 [HG-5-88-01] + Cc1nc(NC(=O)N2CCC[C@H]2C(N)=O)sc1-c1ccnc(C(C)(C)C(F)(F)F)c1 [Alpelisib] (partner 2 µM)", "relative viability": 0.89}

Ask: For the molecule shown here, COc1cc(N2CCC(C(N)=O)CC2)ccc1Nc1nc(N)c(Cl)c(Nc2ccccc2S(=O)(=O)C(C)C)n1 [HG-5-88-01] + CS(=O)(=O)CCNCc1ccc(-c2ccc3ncnc(Nc4ccc(OCc5cccc(F)c5)c(Cl)c4)c3c2)o1 [Lapatinib] (partner 2 µM) , give the reported relative viability.
Result: 0.267

----------
# System: NCI-H1734
# METHOD SUMMARY: relative viability (nuclei count vs DMSO), 5 days (fraction); higher = more cells survive
# CONDITION DESCRIPTION: first compound 1.265 µM
MEASUREMENT TYPE: relative viability
Number only, no unit.

Ask: Suppose we examine the compound Clc1ccc(Nc2nnc(Cc3ccncc3)c3ccccc23)cc1 [Vatalanib] + O=C(c1cc(Cc2n[nH]c(=O)c3ccccc23)ccc1F)N1CCN(C(=O)C2CC2)CC1 [Olaparib] (partner 8 µM) ; what relative viability value has been reported?
Result: 0.609

Ask: Item: COc1cc(N2CCC(C(N)=O)CC2)ccc1Nc1nc(N)c(Cl)c(Nc2ccccc2S(=O)(=O)C(C)C)n1 [HG-5-88-01] + NC(=O)Nc1cc(-c2cccc(F)c2)sc1C(=O)N[C@H]1CCCNC1 [AZD7762] (partner 0.2 µM)
Result: 0.511

Ask: Next: Clc1ccc(Nc2nnc(Cc3ccncc3)c3ccccc23)cc1 [Vatalanib] + NC(=O)Nc1cc(-c2cccc(F)c2)sc1C(=O)N[C@H]1CCCNC1 [AZD7762] (partner 0.2 µM)
Result: 0.536
